ASSAY INFO: Inhibition of PI3Kdelta in Balb/c mouse splenocytes-derived B cells assessed as reduction in anti-IgM antibody-stimulated B cell proliferation after 2 days alamar blue assay
# pIC50 per entry
Please express pIC50 as -log10 of the molar concentration.

- COMPOUND: "COc1ncc(-c2cc(OC[C@@H]3CCCN(CCC4CCOCC4)C3)c3cnn(C)c3n2)cc1NS(C)(=O)=O"
  pIC50: 9.39

// below: pIC50 requested for another compound
Data request: Given "COc1ncc(-c2cc(OC[C@@H]3CCCN(Cc4c(C)nn(C)c4C)C3)c3cnn(C)c3n2)cc1NS(C)(=O)=O" , state its recorded pIC50.
Data returned: 8.82

====

pIC50: recorded values
ASSAY INFO: Inhibition of PI3Kdelta in Balb/c mouse splenocytes-derived B cells assessed as reduction in anti-IgM antibody-stimulated B cell proliferation after 2 days alamar blue assay
In textbook form, pIC50 equals minus log to base ten of the concentration in mol/L.

Data request: For the compound "COc1ncc(-c2cc(OC[C@@H]3CCCN(Cc4cn(C)nc4C)C3)c3cnn(C)c3n2)cc1NS(C)(=O)=O" , what pIC50 is on record?
Data returned: 8.32

Data request: What value of measured pIC50 is listed for "COc1ncc(-c2cc(O[C@@H]3CCN(Cc4c(C)nn(C)c4C)C3)c3cnn(C)c3n2)cc1NS(C)(=O)=O" ?
Data returned: 8.68

Data request: Given "COc1ncc(-c2cc(OC[C@@H]3CCCN(C(=O)C4CCN(C(C)=O)CC4)C3)c3cnn(C)c3n2)cc1NS(C)(=O)=O" , state its recorded pIC50.
Data returned: 8.37

Data request: Entry "COc1ncc(-c2cc(O[C@@H]3CCN(C(=O)C4CCOCC4)C3)c3cnn(C)c3n2)cc1NS(C)(=O)=O" : reported pIC50 = ?
Data returned: 8.59

====

ASSAY INFO: Inhibition of PI3Kdelta in Balb/c mouse splenocytes-derived B cells assessed as reduction in anti-IgM antibody-stimulated B cell proliferation after 2 days alamar blue assay
MEASUREMENT LABEL: log10(IC50) (log10 of the value in nM)
All values: base-10 log of IC50 in nM.

Some molecules with known log10(IC50) results, for comparison:
- MOLECULE: "COc1ncc(-c2cc(OC[C@@H]3CCCN(C(=O)C4CCOCC4)C3)c3cnn(C)c3n2)cc1NS(C)(=O)=O"
  log10(IC50): 0.15
- MOLECULE: "COc1ncc(-c2cc(OC[C@@H]3CCCN(CC4CCOCC4)C3)c3cnn(C)c3n2)cc1NS(C)(=O)=O"
  log10(IC50): -0.54
- MOLECULE: "COc1ncc(-c2cc(OC3CN(C(=O)C4CCOCC4)C3)c3cnn(C)c3n2)cc1NS(C)(=O)=O"
  log10(IC50): 1.30
- MOLECULE: "COc1ncc(-c2cc(OC[C@@H]3CCCN(C(=O)CC4CCOC4)C3)c3cnn(C)c3n2)cc1NS(C)(=O)=O (stereo partly specified)"
  log10(IC50): 0.46
- MOLECULE: "COc1ncc(-c2cc(OC[C@@H]3CCCN(CC4(C)COC4)C3)c3cnn(C)c3n2)cc1NS(C)(=O)=O"
  log10(IC50): 0.18

Now take the following molecule into account.
Data request: Given the entry "COc1ncc(-c2cc(OC[C@H]3CCCN(C(=O)C4CCOCC4)C3)c3cnn(C)c3n2)cc1NS(C)(=O)=O" , report its measured log10(IC50).
Data returned: 0.89
